Data credit: ChEMBL document CHEMBL4689842

Tested on: U2OS
Experiment: Multiplex assay against U2OS
Assay type: toxicity, cell-based
Conditions: human, 24 h, 10 µM, compound concentration 10 uM, replicate 1
So I've got a bunch of compounds here, and I need their Population Membrane Permeable-Phenotype (%) values.
Please reply with the bare figure in % and do not write the unit itself.

Input: What Population Membrane Permeable-Phenotype (%) value was documented for this compound, O=C1NCN(c2ccccc2)C12CCN(CCCOc1ccc(F)cc1)CC2 [SPIRAMIDE] ?
Output: 10

Input: Quick check: Population Membrane Permeable-Phenotype (%) of `OC1(c2ccc(Cl)cc2)CCN(Cc2c[nH]c3ccccc23)CC1` ?
Output: 20

Input: Given the entry `CNCc1ccc(-c2cc(-c3nc(-c4ccc(S(=O)(=O)C(C)C)cc4)cnc3N)on2)cc1` , report its measured Population Membrane Permeable-Phenotype (%).
Output: 61

Input: Give its Population Membrane Permeable-Phenotype (%) value. Item: `Cc1nc(Nc2n[nH]c3c2CN(C(=O)N[C@H](CN(C)C)c2ccccc2)C3(C)C)c2sccc2n1`
Output: 44

Input: Which Population Membrane Permeable-Phenotype (%) reading was recorded for the compound `Cc1c(-c2ccc(O)cc2)n(Cc2ccc(OCCN3CCCCCC3)cc2)c2ccc(O)cc12` ?
Output: 50

Input: State the recorded Population Membrane Permeable-Phenotype (%) for this entry: `CC[C@H](C)C(=O)O[C@H]1C[C@@H](C)C=C2C=C[C@H](C)[C@H](CC[C@@H]3C[C@@H](O)CC(=O)O3)[C@H]21`
Output: 8

Input: Item under review: `CN(C)CC#Cc1ccc(OCCCc2sc(N3CCc4cccc(C(=O)Nc5nc6ccccc6s5)c4C3)nc2C(=O)O)c(F)c1` . Reported Population Membrane Permeable-Phenotype (%)?
Output: 13

Input: Any idea what its Population Membrane Permeable-Phenotype (%) is? The compound is `COc1cc(-n2cnc3cc(-c4ccc(Cl)cc4)sc3c2=O)ccc1OCCN1CCCC1`
Output: 100

====

Please provide measured Growth Rate for the entries that follow.
System: Fibroblast
Assay: Incucyte cell viability with human fibroblast; further: filed as whole numbers so only -1 and 0 and 1 occur
Format: toxicity, cell-based
Details: 12 h, 10 µM, compound concentration 10 uM, replicate number 1, timepoint 12 hours
Where a SMILES comes first, the peptide text is derived from it. [ ]: non-standard residue; d: D form. Arg(Me) = CNC(=N)NCCC[C@H](N)C(=O)O; d4Pal = N[C@H](Cc1ccncc1)C(=O)O; azaGly = NNC(=O)O
The answer should be written as a number, with no unit following it.

Input: Recall the recorded Growth Rate for Cl.N#Cc1ccc2[nH]cc(CCCCN3CCN(c4ccc5oc(C(N)=O)cc5c4)CC3)c2c1 [VILAZODONE HYDROCHLORIDE] with Fibroblast and state it.
Output: 1

Input: Given the entry `COc1cc2nccc(Oc3ccc(NC(=O)Nc4cc(C)on4)c(Cl)c3)c2cc1OC.O` , what Growth Rate was observed with Fibroblast?
Output: 0

Input: Requested read-out Growth Rate, target or system Fibroblast, entry `Cc1cc(Nc2nccc(C)n2)cc(-c2cnc([C@@]3(O)CC[C@H](C(=O)O)C(C)(C)C3)s2)c1`
Output: 0

Input: Param readout = Growth Rate; param system = Fibroblast; param query = `Cc1c(C(=O)NC2CCCCC2)sc2nc3ccc(N)cc3n12.Cl` ; response: value
Output: 1

Input: Enter reported Growth Rate observed with Fibroblast for `C=CC(=O)Nc1ccc2ncnc(Nc3ccc(OCc4cccc(F)c4)c(Cl)c3)c2c1.Cc1ccc(S(=O)(=O)O)cc1`
Output: 0

Input: Request body: readout Growth Rate, system Fibroblast, query `O=S(=O)(c1ccccc1)N(CC(F)(F)F)c1ccc(C(O)(C(F)(F)F)C(F)(F)F)cc1` . Return the value.
Output: 0

Input: Return Growth Rate measured with Fibroblast given this molecule: CNC(=N)NCCC[C@H](NC(=O)[C@H](CC(C)C)NC(=O)NNC(=O)[C@H](Cc1ccccc1)NC(=O)[C@H](CO)NC(=O)[C@H](CC(N)=O)NC(=O)[C@@H](Cc1ccncc1)NC(=O)[C@H](N)Cc1ccc(O)cc1)C(=O)N[C@@H](Cc1ccccc1)C(N)=O [KISS1-305] (H-[dY][d4Pal]NSF[azaGly]L[Arg(Me)]F-NH2)
Output: 0

Input: Query Growth Rate on Fibroblast for `CSc1ccc(C(=O)N[C@@H]2CCCC[C@@H]2NC(=O)CNC(=O)c2cc(C(F)(F)F)ccc2NC(=O)NC(C)C)cc1`
Output: 1

Input: Test system Fibroblast; read-out Growth Rate; what value for `CC[C@@H]1[C@H](F)C(=O)N[C@@H]1COc1nccc2cc(C(N)=O)c(OC)cc12` ?
Output: 0

Input: Find Growth Rate (Fibroblast) for the entry `CCCc1nc2c(C)cc(-c3nc4ccccc4n3C)cc2n1Cc1ccc(-c2ccccc2C(=O)O)cc1`
Output: 0

Input: Query for Fibroblast: what Growth Rate does the record show for CC(C)(C)NCC(O)COc1cccc2[nH]c(=O)[nH]c12.Cl (stereo not given) ?
Output: 1

Input: State its Growth Rate on Fibroblast: `O=C(NCc1ccccc1)c1ccc(S(=O)(=O)NCc2ccccc2)cc1`
Output: 0

Input: Param readout= Growth Rate; system= Fibroblast; entry= CNCCC(Oc1ccc(C(F)(F)F)cc1)c1ccccc1.Cl (stereo not given) [FLUOXETINE HYDROCHLORIDE] ; returns value.
Output: 0

Input: What value of Growth Rate on Fibroblast does `CN(c1ccnc(CNc2nc(Nc3ccc4c(c3)CC(=O)N4)ncc2C(F)(F)F)n1)S(C)(=O)=O` have?
Output: 1

Input: Request - read-out Growth Rate | tested on Fibroblast | molecule `O=C(O)[C@@H]1[C@@H](Cn2nnc3ccccc3c2=O)CC[C@H]1C(=O)c1ccc(OCCC2CCOCC2)cc1`
Output: 1

====

For each of the compounds below, state its Population Fragmented Nuclei (%).
System: HEK-293T
Test: Multiplex assay against HEK293T
Format: toxicity, cell-based
Conditions: human, 12 h, 10 µM, compound concentration 10 uM, replicate 1
Reply numerically in %, unit not repeated.

Input: Any idea what its Population Fragmented Nuclei (%) is? The compound is `C=CC(=O)Nc1cccc(C(=O)Nc2ccc(Nc3cc(-c4[nH]c(SC)nc4C)ccn3)cc2)c1`
Output: 18

Input: Reported Population Fragmented Nuclei (%) for COc1cccc([C@@H](C)NCCCc2ccccc2Cl)c1.Cl [TECALCET HYDROCHLORIDE] : what is it?
Output: 9

Input: Look up Population Fragmented Nuclei (%): `Cc1c(-c2ccc(O)cc2)n(Cc2ccc(OCCN3CCCCCC3)cc2)c2ccc(O)cc12`
Output: 14

Input: Fill in: Population Fragmented Nuclei (%) of `Cc1cc(C)cc(-c2cnc3cc(Cl)c(-c4cccc(O)c4)cc3c2OCCCN)c1` is ___
Output: 23

Input: Tell me the measured Population Fragmented Nuclei (%) of `COc1cc(-n2cnc3cc(-c4ccc(Cl)cc4)sc3c2=O)ccc1OCCN1CCCC1` , please.
Output: 23

Input: Fill blank: measured Population Fragmented Nuclei (%) of the compound `COc1cc2nccc(Oc3ccc(NC(=O)Nc4cc(C)on4)c(Cl)c3)c2cc1OC.O` is ____.
Output: 11

Input: Which value of Population Fragmented Nuclei (%) has been reported for O=C1NCN(c2ccccc2)C12CCN(CCCOc1ccc(F)cc1)CC2 [SPIRAMIDE] in the records?
Output: 16

Input: Bench note: what Population Fragmented Nuclei (%) did `CN(C)CC#Cc1ccc(OCCCc2sc(N3CCc4cccc(C(=O)Nc5nc6ccccc6s5)c4C3)nc2C(=O)O)c(F)c1` show?
Output: 8

Input: Can you share its Population Fragmented Nuclei (%)? I mean this compound: `c1cn2cc(-c3ccc4cn[nH]c4c3)nc(Nc3ccc(N4CCOCC4)cc3)c2n1`
Output: 77

Input: Name the reported Population Fragmented Nuclei (%) value associated with the compound CN1CCCC(n2nc(Cc3ccc(Cl)cc3)c3ccccc3c2=O)CC1.Cl (configuration not stated) [AZELASTINE HYDROCHLORIDE]
Output: 11

Input: # input compound: `Cc1[nH]c(/C=C2\C(=O)Nc3ccc(S(=O)(=O)N(C)c4cccc(Cl)c4)cc32)c(C)c1C(=O)N1CCN(C)CC1` ; wanted: its Population Fragmented Nuclei (%)
Output: 12

Input: Quick one: Population Fragmented Nuclei (%) for `Cc1nc(Nc2n[nH]c3c2CN(C(=O)N[C@H](CN(C)C)c2ccccc2)C3(C)C)c2sccc2n1` ?
Output: 16

Input: Bench note: what Population Fragmented Nuclei (%) did `Cc1nc(-c2cn3c(n2)-c2ccc(-c4cnn(C(C)(C)C(N)=O)c4)cc2OCC3)n(C(C)C)n1` show?
Output: 17

Input: Look at this compound and give its reported Population Fragmented Nuclei (%). C=CC(=O)Nc1cc2c(Nc3ccc(F)c(Cl)c3)ncnc2cc1OCCCN1CCOCC1.Cl.Cl [CANERTINIB DIHYDROCHLORIDE]
Output: 14

Input: Item `COc1ncc(-c2ccc3nccc(-c4ccnnc4)c3c2)cc1NS(=O)(=O)c1ccc(F)cc1F` has what recorded Population Fragmented Nuclei (%)?
Output: 12

Input: I am curious: what Population Fragmented Nuclei (%) value has been reported for `CN1CCN(c2ccc(OC(F)(F)F)c(Nc3ncc4c(n3)-c3c(c(C(N)=O)nn3CCO)CC4)c2)CC1` ?
Output: 8

Input: Using the record for `OC1(c2ccc(Cl)cc2)CCN(Cc2c[nH]c3ccccc23)CC1` , report its Population Fragmented Nuclei (%).
Output: 11

Input: Would you kindly share the measured Population Fragmented Nuclei (%) for CC(C)NCC(O)COc1ccc(CCOCC2CC2)cc1.Cl (configuration not stated) [BETAXOLOL HYDROCHLORIDE] ?
Output: 9

Input: # input compound: `CNc1nc(NCc2ccc(NS(C)(=O)=O)cc2Cl)cc(-c2ccccn2)n1` ; wanted: its Population Fragmented Nuclei (%)
Output: 9

Input: Given C[C@@H](NCCCc1cccc(C(F)(F)F)c1)c1cccc2ccccc12.Cl [CINACALCET HYDROCHLORIDE] , state its recorded Population Fragmented Nuclei (%).
Output: 12

Input: Recorded Population Fragmented Nuclei (%) for `CCN(CC)CCCCNc1ncc2cc(-c3cc(OC)cc(OC)c3)c(NC(=O)NC(C)(C)C)nc2n1` , please?
Output: 29

Input: Field request: Population Fragmented Nuclei (%) | item: `C=CC(=O)Nc1ccc2ncnc(Nc3ccc(OCc4cccc(F)c4)c(Cl)c3)c2c1.Cc1ccc(S(=O)(=O)O)cc1`
Output: 10

Input: // query Population Fragmented Nuclei (%) value for entry `CC(C)(O)CNc1ncc(-c2ccnc(Nc3ccnc(Cl)c3)n2)c(CC2CC2)n1`
Output: 11

Input: Query (compound): CN(C)C(=O)N[C@H]1CC[C@H](CCN2CCN(c3cccc(Cl)c3Cl)CC2)CC1.Cl [CARIPRAZINE HYDROCHLORIDE] ; field requested: Population Fragmented Nuclei (%)
Output: 7

Input: What Population Fragmented Nuclei (%) value was documented for this compound, `CN1CCN(CCOc2cc(OC3CCOCC3)c3c(Nc4c(Cl)ccc5c4OCO5)ncnc3c2)CC1` ?
Output: 15

Input: What does the record list as Population Fragmented Nuclei (%) for `CN(C)C(=O)/C(C#N)=C/c1ccc(-c2nc3cnc4[nH]ccc4c3n2C2CCCCC2)o1` ?
Output: 24

Input: Which Population Fragmented Nuclei (%) reading was recorded for the compound `Cn1cc(-c2[nH]c3cc(NC(=O)[C@H](N)C4CCCCC4)cc4c3c2C=NNC4=O)cn1` ?
Output: 15

Input: Request the reported Population Fragmented Nuclei (%) associated with `Cc1nc(-c2ccc(-c3ccc(C(=O)N4CCc5cc6c(cc54)C4(CCN(C)CC4)CO6)cc3)c(C)c2)no1`
Output: 8

Input: // query Population Fragmented Nuclei (%) value for entry `CC[C@H](C)C(=O)O[C@H]1C[C@@H](C)C=C2C=C[C@H](C)[C@H](CC[C@@H]3C[C@@H](O)CC(=O)O3)[C@H]21`
Output: 8

Input: For `Cc1csc2c(N[C@@H](C)CN3CCN(S(=O)(=O)c4ccc(Cl)c(Cl)c4)CC3)ncnc12` , what is its reported Population Fragmented Nuclei (%)?
Output: 9

Input: Entry under review: CN1CCC[C@@H]1CCO[C@](C)(c1ccccc1)c1ccc(Cl)cc1.O=C(O)/C=C/C(=O)O [CLEMASTINE FUMARATE] . Reported Population Fragmented Nuclei (%)?
Output: 14
